Biological target: T1, mouse TF ECD-His6 (mouse, UniProt P20352 29-251)
T1 construct: Expi293-derived; also called TF-His; mTF
Assay: BLI (ForteBio Octet)
Property: Kd; scope: individual binders
Your answer should be a plain number; it is taken to be in nM.

Check out these entries, answers already filled in.
{"binder": "43B1 (antibody, human IgG1, V domains shown, Human IgG1; also called antibody designated 43B1) VH: QVQLQESGPGLVKPSQTLSLTCTVSGGSISSGQYWSWIRQHPGKGLEWIGEIYYSGSTRYNPSLKSRVTISVDTSKNQFSLKLSSVTAADTAVYYCARDAPYYYGGGYYYYMDVWGKGTTVTVSS VL: EIVLTQSPGTLSLSPGERATLSCRASESVDSSYLAWYQQKPGQAPRLLIYGASTRQTGIPDRFSGSGSGTDFTLTISRLEPEDFAVYYCQQAGVVPYTFGGGTKVEIK", "output_unit": "nM", "Kd": 72.1}
{"binder": "25A (antibody, human IgG1, V domains shown, Human IgG1; also called antibody designated 25A) VH: QVQLVQSGAEVKKPGASVKVSCKASGYTFDVYGISWVRQAPGQGLEWMGWIAPYNGNTNYAQKLQGRVTMTTDTSTSTAYMELRSLRSDDTAVYYCARDAGTYSPFGYGMDVWGQGTTVTVSS VL: DIQMTQSPSTLSASVGDRVTITCRASQSISSWLAWYQQKPGKAPKLLIYKASSLESGVPSRFSGSGSGTEFTLTISSLQPDDFATYYCQQFQSLPPFTFGGGTKVEIK", "output_unit": "nM", "Kd": 263}
{"binder": "25G9 (antibody, human IgG1, V domains shown, Human IgG1; also called antibody designated 25G9) VH: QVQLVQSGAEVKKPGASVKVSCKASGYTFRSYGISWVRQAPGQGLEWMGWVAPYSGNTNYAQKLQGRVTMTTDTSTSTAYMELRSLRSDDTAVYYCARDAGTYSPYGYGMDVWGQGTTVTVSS VL: DIQMTQSPSTLSASVGDRVTITCQASQSIDSWLAWYQQKPGKAPKLLIYSASYLESGVPSRFSGSGSGTEFTLTISSLQPDDFATYYCQRFQSLPPFTFGGGTKVEIK", "output_unit": "nM", "Kd": 9.16}
{"binder": "43B7 (antibody, human IgG1, V domains shown, Human IgG1; also called antibody designated 43B7) VH: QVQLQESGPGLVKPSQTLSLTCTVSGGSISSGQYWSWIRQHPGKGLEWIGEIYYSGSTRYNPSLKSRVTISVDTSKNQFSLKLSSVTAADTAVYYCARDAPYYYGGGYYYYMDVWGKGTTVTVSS VL: EIVLTQSPGTLSLSPGERATLSCRASESVDSSYLAWYQQKPGQAPRLLIYGADSRATGIPDRFSGSGSGTDFTLTISRLEPEDFAVYYCQQDGVVPYTFGGGTKVEIK", "output_unit": "nM", "Kd": 360}
{"binder": "43D7 (antibody, human IgG1, V domains shown, Human IgG1; also called antibody designated 43D7) VH: QVQLQQWGAGLLKPSETLSLTCAVYGGSLSGYYWSWIRQPPGKGLEWIGEIGASGSTRYNPSLKSRVTISVDTSKNQFSLKLSSVTAADTAVYYCARDTPYYYEGGYYYYMDVWGKGTTVTVSS VL: EIVLTQSPGTLSLSPGERATLSCRASDSVDSSYLAWYQQKPGQAPRLLIYGAFSRANGIPDRFSGSGSGTDFTLTISRLEPEDFAVYYCQQAGVVPYTFGGGTKVEIK", "output_unit": "nM", "Kd": 41.4}

Proceeding to the next binder to report its Kd.
Find the recorded Kd belonging to 43D8 (antibody, human IgG1, V domains shown, Human IgG1; also called antibody designated 43D8) VH: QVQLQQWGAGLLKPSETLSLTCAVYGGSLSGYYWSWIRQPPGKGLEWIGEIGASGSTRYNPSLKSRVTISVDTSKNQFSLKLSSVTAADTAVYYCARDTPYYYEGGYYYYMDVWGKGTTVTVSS VL: EIVLTQSPGTLSLSPGERATLSCRASQSVSSSFLAWYQQKPGQAPRLLIYGAYSRATGIPDRFSGSGSGTDFTLTISRLEPEDFAVYYCQQAGVVPYTFGGGTKVEIK and report it.
6.12
